test name: Fold resistance,ratio of IC50 for antiplasmodial activity against chloroquine, mefloquine and pyrimethamine resistant plasmodium falciparum Dd2 to IC50 for antiplasmodial activity against plasmodium falciparum 3D7
Type: functional
Would you kindly list Ratio for each of these compounds?
Give bare numbers.

Reference set, count: 2
[[record]]
compound = "CCN(CCCC(C)Nc1ccnc2cc(Cl)ccc12)CCNc1c(NCCN(CC)CCCC(C)Nc2ccnc3cc(Cl)ccc23)c(=O)c1=O (stereo not given)"
recorded_number = 2.6

[[record]]
compound = "CCN(CCCC(C)Nc1ccnc2cc(Cl)ccc12)CCNc1c(NCCCC[C@H](NC(C)=O)C(=O)OC)c(=O)c1=O (stereo not given in full)"
recorded_number = 3


Go through the list and state Ratio for each entry.
1. CCC[C@@H]1CC(C(=O)N[C@@H](C2O[C@H](SC)[C@H](O)[C@@H](O)[C@H]2O)[C@@H](C)Nc2c(NCCN(CC)CCCC(C)Nc3ccnc4cc(Cl)ccc34)c(=O)c2=O)N(C)C1 (stereo not given in full)
2. CCN(CCCC(C)Nc1ccnc2cc(Cl)ccc12)CCN=[N+]=[N-] (stereo not given)

OUT:
[7.8, 6.5]

IN: May I ask what Ratio has been recorded for CCOc1c(NCCN(CC)CCCC(C)Nc2ccnc3cc(Cl)ccc23)c(=O)c1=O (stereo not given) ?
OUT: 16.6

---

Would you kindly list Ratio for each of these compounds?
test name: Fold resistance,ratio of IC50 for antiplasmodial activity against chloroquine, mefloquine and pyrimethamine resistant plasmodium falciparum Dd2 to IC50 for antiplasmodial activity against plasmodium falciparum 3D7
Type: functional
Square brackets hold non-standard residues; d marks the D form. Peptide text beside a SMILES is read from it.
Answers are plain numbers.

Reference set, count: 2
[[record]]
compound = "CCC[C@@H]1C[C@@H](C(=O)N[C@@H]([C@H]2O[C@H](SC)[C@H](O)[C@@H](O)[C@H]2O)[C@@H](C)N=[N+]=[N-])N(C)C1"
assay_endpoint = "Ratio"
recorded_number = 1

[[record]]
compound = "CCN(CCN)CCCC(C)Nc1ccnc2cc(Cl)ccc12 (stereo not drawn)"
assay_endpoint = "Ratio"
recorded_number = 17.1


The record that follows has no Ratio shown yet.
IN: May I ask what Ratio has been recorded for CC[C@@H](C)[C@H]1NC(=O)[C@@H](C)NC(=O)[C@H](Cc2ccccc2)NC(=O)[C@@H](CC(C)C)NC(=O)[C@@H](C(C)C)NC(=O)[C@H](Cc2ccccc2)NC(=O)[C@@H]([C@H](C)CC)NC1=O (cyclo(F[dA][dI][dI]F[dV][dL])) ?
OUT: 0.7
